The measurements presented in this section are drawn from patent US20060069132A1.

test system: wild oat; test: Test B postemergence herbicide test; format: in vivo, Avena fatua; settings: postemergence, 500 g ai/ha; visual rating, scale 0 (no effect) to 100 (complete control)
// reported Oat, Wild plant response rating per item
In your answer, state the number alone without any accompanying words.

- C=CCn1nc(C(C)(C)C)cc1C(=O)Nc1cccc(C(C)=O)c1: 0
- CCc1nn(C(C)(C)C)cc1C(=O)Nc1cc(C(=O)NC)ccc1F: 0
- CCn1nc(C(C)(C)C)cc1C(=O)Nc1nccc(OC)n1: 0
- CCc1nc(C(C)(C)C)sc1C(=O)Nc1cccc(C(=O)NCC2CC2)n1: 20

query: Give the value of Oat, Wild plant response rating reported for the following: CCN(C)C(=O)c1cccc(NC(=O)c2sc(C(C)(C)C)nc2C)c1
result: 0

query: Give the value of Oat, Wild plant response rating reported for the following: CCNC(=O)c1cc(C)nc(NC(=O)c2cc(C(C)(C)C)nn2CC)c1
result: 30

query: Give the value of Oat, Wild plant response rating reported for the following: CCc1cn(C(C)(C)C)nc1C(=O)Nc1cc(C(=O)N(C)CC)ccn1
result: 20

query: Give the value of Oat, Wild plant response rating reported for the following: CC(=O)c1cc(NC(=O)c2cc(C(C)(C)C)nn2C)ccc1F
result: 0

query: Give the value of Oat, Wild plant response rating reported for the following: CC(=NO)c1ccnc(NC(=O)c2cc(C(C)(C)C)nn2C)n1
result: 0

query: Give the value of Oat, Wild plant response rating reported for the following: CCn1nc(C(C)(C)C)cc1C(=O)Nc1cccc(S(C)(=O)=O)c1
result: 20

query: Give the value of Oat, Wild plant response rating reported for the following: CCn1nc(C(C)(C)C)cc1C(=O)Nc1cccc(S(=O)(=O)C(F)(F)F)c1
result: 30
